Experimental system: estrogen receptor alpha (ESR1) in MCF7 breast cancer cells (Homo sapiens, UniProt P03372)
Assay name: Breast Cancer Cell ERa High Content Fluorescence Imaging Degradation Assay (ER-alpha MCF7 HCS)
Assay type: cell-based
Parameters: endogenous in cells; host or cells: MCF7 breast cancer cells
Experimental setup: 4 hours, plateau of the maximal effect, DMSO and fulvestrant define 0% and 100% change in ESR1, Table 1a
Measurement name: ER-alpha MCF7HCS Sinf (%)

// solved cases for ER-alpha MCF7HCS Sinf follow
- C[C@@H]1Cc2[nH]c3ccccc3c2[C@@H](c2c(F)cc(NC3CN(CCCF)C3)cc2F)N1CC(F)(F)F [Example 152]: −99
- C[C@H]1Cc2[nH]c3ccccc3c2[C@H](c2c(F)cc(NC3CN(CCCF)C3)cc2F)N1CC(F)(F)F [Example 153]: −30
- C[C@@H]1Cc2c(sc3ccccc23)[C@@H](c2c(F)cc(NC3CN(CCCF)C3)cc2F)N1CC(F)(F)CO (single isomer, unassigned) [Example 159]: −102
- C[C@@H]1Cc2[nH]c3ccccc3c2[C@@H](c2c(F)cc(NC3CN(CCCF)C3)cc2F)N1CC(F)(F)CO (single isomer, unassigned) [Example 155]: −97.4

I. C[C@@H]1CCc2c([nH]c3ccccc23)[C@@H](c2c(F)cc(OCCN3CC(CF)C3)cc2F)N1CC(C)(C)F [Example 116]
II. CC(C)(F)C(=O)N1CCCc2c([nH]c3ccccc23)[C@H]1c1c(F)cc(OCCN2CC(CF)C2)cc1F [Example 106]
Request: Recorded ER-alpha MCF7HCS Sinf values differ for I and II ; which one is higher? // return label of chosen record
Response: II
(II: −35%, I: −93.5%)

###

Experimental system: estrogen receptor alpha (ESR1) in MCF7 breast cancer cells (Homo sapiens)
Sequence (P03372 1-595): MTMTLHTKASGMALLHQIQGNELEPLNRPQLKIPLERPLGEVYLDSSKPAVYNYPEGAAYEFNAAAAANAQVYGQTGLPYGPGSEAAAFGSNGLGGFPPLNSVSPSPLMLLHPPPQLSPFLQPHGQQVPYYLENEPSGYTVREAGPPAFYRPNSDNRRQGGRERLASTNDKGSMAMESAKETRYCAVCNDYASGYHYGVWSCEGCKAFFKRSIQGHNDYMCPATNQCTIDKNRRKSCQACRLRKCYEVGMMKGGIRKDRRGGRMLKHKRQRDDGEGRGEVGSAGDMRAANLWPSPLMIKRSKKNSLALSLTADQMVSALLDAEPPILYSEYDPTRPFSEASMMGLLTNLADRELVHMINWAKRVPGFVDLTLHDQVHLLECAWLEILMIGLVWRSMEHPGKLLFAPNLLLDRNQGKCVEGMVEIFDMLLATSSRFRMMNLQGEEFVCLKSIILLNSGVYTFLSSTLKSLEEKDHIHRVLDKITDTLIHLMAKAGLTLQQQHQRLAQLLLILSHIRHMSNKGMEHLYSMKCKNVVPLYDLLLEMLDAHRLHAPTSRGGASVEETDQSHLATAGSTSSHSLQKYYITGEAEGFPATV
Assay name: Breast Cancer Cell ERa High Content Fluorescence Imaging Degradation Assay (ER-alpha MCF7 HCS)
Format: cell-based
Parameters: endogenous in cells; host or cells: MCF7 breast cancer cells
Experimental setup: 4 hours, plateau of the maximal effect, DMSO and fulvestrant define 0% and 100% change in ESR1, Table 1a
Measurement name: ER-alpha MCF7HCS Sinf (%)

* CC1Cc2c(c3ccccc3n2C)C(c2c(F)cc(OCCN3CC(CF)C3)cc2F)N1CC(C)(C)F (racemic) [Example 139] | −88.6
* C[C@@H]1Cc2c([nH]c3ccccc23)[C@@]2(CCc3cc(OCCN4CC(CF)C4)ccc32)N1CC(F)(F)F [Example 115] | −98
* C[C@@H]1Cc2[nH]c3ccccc3c2[C@@H](c2c(F)cc(NC3CN(CCCF)C3)cc2F)N1CC(F)F [Example 150] | −99.4
* C[C@H]1CCN(CC(C)(C)F)[C@@H](c2c(F)cc(OCCN3CC(CF)C3)cc2F)c2[nH]c3ccccc3c21 [Example 124] | −75

###

Experimental system: estrogen receptor alpha (ESR1) in MCF7 breast cancer cells (Homo sapiens, UniProt P03372)
Sequence (P03372 1-595): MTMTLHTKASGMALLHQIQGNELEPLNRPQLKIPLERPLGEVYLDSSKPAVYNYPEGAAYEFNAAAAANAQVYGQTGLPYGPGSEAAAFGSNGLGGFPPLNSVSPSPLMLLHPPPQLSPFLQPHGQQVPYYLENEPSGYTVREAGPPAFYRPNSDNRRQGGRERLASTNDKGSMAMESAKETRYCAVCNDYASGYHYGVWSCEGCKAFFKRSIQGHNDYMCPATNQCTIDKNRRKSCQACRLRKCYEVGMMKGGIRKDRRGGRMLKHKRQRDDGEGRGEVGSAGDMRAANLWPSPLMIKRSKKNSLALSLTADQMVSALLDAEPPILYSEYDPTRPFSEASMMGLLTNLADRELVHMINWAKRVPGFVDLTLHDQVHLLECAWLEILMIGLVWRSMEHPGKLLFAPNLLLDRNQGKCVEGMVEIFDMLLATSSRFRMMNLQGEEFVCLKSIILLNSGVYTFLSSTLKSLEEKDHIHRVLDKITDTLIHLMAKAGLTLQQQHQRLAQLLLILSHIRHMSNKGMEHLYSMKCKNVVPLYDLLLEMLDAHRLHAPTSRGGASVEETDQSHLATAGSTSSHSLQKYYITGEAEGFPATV
Assay name: Breast Cancer Cell ERa High Content Fluorescence Imaging Degradation Assay (ER-alpha MCF7 HCS)
Assay type: cell-based
Parameters: endogenous in cells; host or cells: MCF7 breast cancer cells; key: % change in ERα level; DMSO = 0%, fulvestrant = 100% change
Experimental setup: 4 hours, plateau of the maximal effect, DMSO and fulvestrant define 0% and 100% change in ESR1, Table 1b
Measurement name: ERalpha (WT) MCF7HCS (Sinf)

* COc1cc2c3c([nH]c2cn1)[C@@H](c1c(F)cc(NC2CN(CCCF)C2)cc1F)N(CC(F)(F)CO)[C@H](C)C3 [Example 161] | −97.3
* C[C@@H]1Cn2c(cc3ccccc32)[C@@H](c2c(F)cc([C@H](O)C3CN(CCCF)C3)cc2F)N1CC(F)(F)CO (single isomer, unassigned) [Example 164] | −98.6
* C[C@@H]1Cc2sc3ccccc3c2[C@@H](c2c(F)cc(NC3CN(CCCF)C3)cc2F)N1CC(F)(F)CO [Example 166] | −101
* C[C@@H]1Cn2c(cc3ccccc32)[C@@H](c2c(F)cc([C@@H](O)C3CN(CCCF)C3)cc2F)N1CC(F)(F)CO (single isomer, unassigned) [Example 163] | −100
* C[C@H]1Cc2sc3ccccc3c2[C@H](c2c(F)cc(NC3CN(CCCF)C3)cc2F)N1CC(F)(F)CO [Example 165] | −92.3
* C[C@H]1Cc2oc3ccccc3c2[C@H](c2c(F)cc(OCCN3CC(CF)C3)cc2F)N1CC(C)(C)F (stereo in doubt) [Example 168] | −97
* C[C@@H]1Cc2oc3ccccc3c2[C@@H](c2c(F)cc(OCCN3CC(CF)C3)cc2F)N1CC(C)(C)F (stereo in doubt) [Example 167] | −96

###

Experimental system: estrogen receptor alpha (ESR1) in MCF7 breast cancer cells (Homo sapiens)
Assay name: Breast Cancer Cell ERa High Content Fluorescence Imaging Degradation Assay (ER-alpha MCF7 HCS)
Assay type: cell-based
Parameters: endogenous in cells; host or cells: MCF7 breast cancer cells
Experimental setup: 4 hours, plateau of the maximal effect, DMSO and fulvestrant define 0% and 100% change in ESR1, Table 1a
Measurement name: ER-alpha MCF7HCS Sinf (%)

- C[C@@H]1Cc2c([nH]c3ccccc23)[C@]2(CCc3cc(OCCN4CC(CF)C4)ccc32)N1CC(F)(F)F: −96.6
- CC(C)(F)CN1[C@H](c2c(F)cc(OCCN3CC(CF)C3)cc2F)c2[nH]c3ccccc3c2[C@H]2CC[C@H]21: −68
- C[C@@H]1Cn2c(cc3ccccc32)[C@@H](c2c(F)cc(NC3CN(CCCF)C3)cc2F)N1CC(C)(C)F: −100
- C[C@@H]1Cn2c(cc3ccccc32)[C@H](c2c(F)cc(NC3CN(CCCF)C3)cc2F)N1CC(F)(F)F: −87
- C[C@@H]1CN(CC(C)(C)F)[C@@H](c2c(F)cc(OCCN3CC(CF)C3)cc2F)c2[nH]c3ccccc3c21 (single isomer, unassigned): −74.6
- CC(C)(F)CN1CCCc2c([nH]c3ccccc23)[C@H]1c1c(F)cc(OCCN2CC(CF)C2)cc1F: −96.7
- C[C@@H]1Cc2c([nH]c3ccccc23)[C@@](C)(c2ccc(OCCN3CC(CF)C3)cc2)N1CC(C)(C)F: −95

###

Experimental system: estrogen receptor alpha (ESR1) in MCF7 breast cancer cells (Homo sapiens, UniProt P03372)
Sequence (P03372 1-595): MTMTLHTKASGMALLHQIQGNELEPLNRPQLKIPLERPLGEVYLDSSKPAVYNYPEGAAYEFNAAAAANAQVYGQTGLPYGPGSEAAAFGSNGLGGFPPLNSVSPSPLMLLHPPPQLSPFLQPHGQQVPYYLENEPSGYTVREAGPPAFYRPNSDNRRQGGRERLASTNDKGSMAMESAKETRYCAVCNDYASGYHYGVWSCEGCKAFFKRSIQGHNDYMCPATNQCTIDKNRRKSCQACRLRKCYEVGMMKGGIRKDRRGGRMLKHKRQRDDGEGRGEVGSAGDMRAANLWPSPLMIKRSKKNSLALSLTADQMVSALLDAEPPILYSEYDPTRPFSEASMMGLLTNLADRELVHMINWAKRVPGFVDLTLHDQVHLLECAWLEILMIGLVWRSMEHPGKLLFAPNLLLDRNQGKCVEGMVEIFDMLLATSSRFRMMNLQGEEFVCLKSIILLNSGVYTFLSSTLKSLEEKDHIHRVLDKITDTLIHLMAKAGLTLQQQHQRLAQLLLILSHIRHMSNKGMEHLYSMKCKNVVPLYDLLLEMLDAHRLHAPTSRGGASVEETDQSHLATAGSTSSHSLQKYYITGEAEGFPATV
Assay name: Breast Cancer Cell ERa High Content Fluorescence Imaging Degradation Assay (ER-alpha MCF7 HCS)
Format: cell-based
Parameters: endogenous in cells; host or cells: MCF7 breast cancer cells
Experimental setup: 4 hours, plateau of the maximal effect, DMSO and fulvestrant define 0% and 100% change in ESR1, Table 1a
Description: All of the exemplary Formula I, II, and III compounds in Tables 1a and 1b were made and characterized by LCMS [M+H]^+ (liquid chromatography mass spectroscopy) with detection of parent ion. […] ER-alpha MCF7 HCS Sinf (%) values in Tables 1a and 1b were measured by the Breast Cancer Cell ERa High Content Fluorescence Imaging Degradation Assay of Example 901. ER-alpha MCF7 HCS EC50 (μM) values in Tables 1a and 1b were measured by the in vitro cell proliferation assays described in Examples 902 and 903. […]
Measurement name: ER-alpha MCF7HCS Sinf (%)

• C[C@H]1Cc2sc3ccccc3c2[C@@H](c2ccc(OCCN3CC(CF)C3)cc2)N1CC(C)(C)F [Example 131] = −99
• C[C@H]1Cc2c(sc3ccccc23)[C@H](c2c(F)cc(NC3CN(CCCF)C3)cc2F)N1CC(F)(F)CO (single isomer, unassigned) [Example 160] = −96.9
• C[C@@H]1CN(CC(C)(C)F)[C@H](c2c(F)cc(OCCN3CC(CF)C3)cc2F)c2[nH]c3ccccc3c21 (single isomer, unassigned) [Example 108] = −92.4
• C[C@@H]1Cn2c(cc3ccccc32)[C@@H](c2c(F)cc(OC3CN(CCCF)C3)cc2F)N1CC(C)(C)F [Example 110] = −100
• CC(F)(CO)CN1CCCc2c([nH]c3ccccc23)[C@@H]1c1c(F)cc(OCCN2CC(CF)C2)cc1F (stereo partly drawn) [Example 119] = −95.6
• C[C@@H]1Cc2c(oc3ccccc23)[C@@H](c2c(F)cc(NC3CN(CCCF)C3)cc2F)N1CC(F)(F)CO (single isomer, unassigned) [Example 157] = −102
